Recorded values, source ChEMBL document CHEMBL2331466.

- protocol_text: Antioxidant activity assessed as inhibition of xanthine-xanthine oxidase generated superoxide anion radical production by NBT reduction assay
- Type: functional
measured_parameter: IC50 (µM)

• COc1cc(/C=C\C(=O)NCC(O)c2ccc(O)cc2)ccc1O (stereo not given) = 22.2

(A) COc1cc2c(c(OC)c1O)C(c1ccc(O)c(O)c1)C(C(=O)NCCc1ccc(O)cc1)C(C(=O)NCCc1ccc(O)cc1)=C2 (stereo not given)
(B) Cc1c(C)c2c(c(C)c1O)CCC(C)(C(=O)O)O2 (stereo not given) [TROLOX]
Enquiry: When their IC50 values are compared, which is larger, A or B ? // return label of chosen record
Return: A
(A: 50.1 µM, B: 27.2 µM)

(P) COc1cc(/C=C(/C(=O)NCCCCNC(C)=O)c2cc(O)c(O)cc2CCC(=O)NCCc2ccc(O)cc2)ccc1O
(Q) O=C(CCc1ccc(O)c(O)c1)NCCc1ccc(O)cc1
Enquiry: When their IC50 values are compared, which is larger, P or Q ? // return label of chosen record
Return: P

---

- protocol_text: Antioxidant activity assessed as inhibition of xanthine-xanthine oxidase generated superoxide anion radical production by NBT reduction assay
- Format: functional
pIC50: −log10 of the molar value.
measured_parameter: pIC50

* COc1cc(O)cc([C@H]2Oc3ccc(/C=C/C(=O)NCCc4ccc(O)cc4)cc3O[C@@H]2C(=O)NCCc2ccc(O)cc2)c1 (relative stereo) | 4.33
* COc1cc2c(c(OC)c1O)[C@H](c1ccc(O)c(O)c1)[C@@H](C(=O)NCCc1ccc(O)cc1)C(C(=O)NCCCCNC(C)=O)=C2 (relative stereo) | 4.24
* COc1cc(/C=C(/C(=O)NCCCCNC(C)=O)c2cc(O)c(O)cc2CCC(=O)NCCc2ccc(O)cc2)cc(OC)c1O | 4.28
* O=C(/C=C/c1ccc(O)cc1)NCCc1ccc(O)cc1 | 4.28
* O=C(/C=C/c1ccc(O)c(O)c1)NCCc1ccc(O)cc1 | 4.36
* COc1cc([C@H]2Oc3ccc(/C=C/C(=O)NCCc4ccc(O)cc4)cc3O[C@@H]2CO)ccc1O (relative stereo) | 4.35
* COc1cc(O)cc([C@H]2Oc3ccc(/C=C\C(=O)NCCc4ccc(O)cc4)cc3O[C@@H]2C(=O)NCCc2ccc(O)cc2)c1 (relative stereo) | 4.36
* COc1ccc(/C=C/C(=O)NCCc2ccc(O)cc2)cc1O | 4.31
* COc1cc(/C=C(/C(=O)NCCc2ccc(O)cc2)c2cc(O)c(O)cc2CCC(=O)NCCc2ccc(O)cc2)cc(OC)c1O | 4.30
* COc1cc([C@H]2Oc3ccc(/C=C\C(=O)NCCc4ccc(O)cc4)cc3O[C@@H]2CO)ccc1O (relative stereo) | 4.30
